target: Ac-VQIINK-NH2 (SEQ ID NO: 23) (N-terminal acetyl (Ac); C-terminal amide (NH2)); assay: cell-based or functional assay
Square brackets hold non-standard residues; d marks the D form. Ends that are not written are not given here.
Reported VQIINK Inhibition IC50 values for a set of binders
API: value field is a number in µm; no unit string.

Binder	Unit descriptor	VQIINK Inhibition IC50
[dL][dK][dI][dR][dI][dH][dY][dH] [lkirihyh]	µm	1.99
[dW][dK][dL][dW][dL][dR][dW][dW] [wklwlrww]	µm	1.58

For [dL][dD][dL][dR][dF][dK][dL][dY] [ldlrfkly] , write its VQIINK Inhibition IC50. 1.55
